Reported values of inhibition for individual entries
Tested on: beta-arrestin 1 C-terminal peptide binding to AP2 beta2-adaptin appendage (human)
measurement_notes: inhibitors of beta-arrestin/AP2 binding, primary screen, biochemical, GPCR trafficking, flow cytometry (AID 504490);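 further: plate controls were DMSO wells for no effect and 5 µM unlabelled arrestin peptide for full effect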
assay_context: FITC-arrestin peptide / GST-AP2 beads, at 10 µM, stronger effect = higher value, AP2 beta2 appendage carries R879A mutation
The whole screen tested about 340,000 compounds, of which about 1,100 (0.32%) were called active. For the sample, actives were picked, then their nearest neighbours and some compounds at random.
attribute_measured: inhibition (%)

O=C(CC12CC3CC(CC(C3)C1)C2)NCc1ccco1; 5.06
CC(C)(C)c1cnnn1-c1ccc([N+](=O)[O-])cc1; -1.38
Cn1cc(CCC(=O)N2CCCC(C(=O)c3ccc(C(C)(C)C)cc3)C2)cn1 (stereo unspecified); 5.89
Cc1ccc(Cl)cc1-c1ccc(/C=N/n2cnnc2)o1; 63.3
CC(=O)Nc1ccc(S(=O)(=O)N2CCC(N(C)CCC(C)C)CC2)cc1; -0.3
COc1ccc(C2(CNC(=O)C(c3ccccc3)c3ccccc3)CCOCC2)cc1OC; -2.16
O=C(NCCc1ccccn1)c1cc(-c2ccc(Cl)cc2)nc2ccccc12; 13.5
CCOc1ccc(C(=O)NC2CCN(S(=O)(=O)CC)CC2)cc1; 2.75
CCOc1ccc(C(=O)NC2CCN(CC(=O)NCc3cccs3)CC2)cc1; 54.6
Cc1ccc(CN2C(=O)CCC2C(=O)NCCCN2CCCCC2C)cc1 (stereo unspecified); 102
COc1ccccc1NC(=O)c1c(Br)cnn1C; 6.15
Cn1c(=O)c2sccc2n(Cc2ccc(Br)cc2)c1=O; -7.24
COc1cc2c(cc1NC(=O)CN1CCN(S(=O)(=O)c3ccc(F)cc3)CC1)oc1ccccc12; 11.4
COc1cc2c(cc1NC(=O)COC(=O)/C=C/c1ccccc1)oc1ccccc12; 105
CCC(C)NC(=O)C1CCC(=O)N1Cc1ccc(C)cc1 (stereo unspecified); 3.49
Cn1c(=O)c2c(nc(N/N=C/c3cccs3)n2Cc2ccc(Br)cc2)n(C)c1=O; 70.5
Cc1cc(C)c(-c2c(O)c3ccccc3n(C)c2=O)c(C)c1; 3.35
CC(=O)c1cccc(OCC(=O)OCC(=O)Nc2cc(S(=O)(=O)N3CCCCC3)ccc2C)c1; 38.5
Cc1c(C2=CCN(S(=O)(=O)c3ccc(Cl)cc3)CC2)c2ccccc2n1C; 6.61
CC(=O)N(C1=C(Cl)C(=O)c2ccccc2C1=O)c1ccc(C(=O)O)cc1; 64.7
Cn1c(=O)c([N+](=O)[O-])c(Oc2ccccc2)c2ccccc21; 54.9
CCOc1ccc(/C=N/OCC(=O)NCc2cccs2)cc1; -13.4
Clc1cc(-c2ccc(/C=N/n3cnnc3)o2)ccc1Br; 1.32
Cc1ccc2[nH]cc(CCNC(=O)c3ccc([N+](=O)[O-])cc3)c2c1; 5.19
O=[N+]([O-])c1ccccc1N/N=C1\CCc2ccccc21; -6.42
O=C(CSc1nnc(COc2ccc(Cl)cc2)n1Cc1ccco1)N1CCNC1=O; -11.3
COc1ccc(C(=O)Nc2ccc(-n3nncc3C(C)(C)C)cc2)cc1; -18.4
COc1cc(C2/C(=C(\O)c3ccc4c(c3)CC(C)O4)C(=O)C(=O)N2c2nnc(C)s2)cc(OC)c1OC (stereo unspecified); 18.6
Cc1ccc(N2C(=O)C(NC(=O)c3c(F)cccc3F)(C(F)(F)F)C3=C2CC(C)(C)CC3=O)cc1 (stereo unspecified); 11.2
O=S(=O)(c1ccccc1)N(Cc1cccc(F)c1)c1ccccc1; 6.33
CCCc1ccc(-c2csc(NC(=O)Cc3cccs3)n2)cc1; 86.3
COc1ccccc1CNC(=O)COC(=O)c1cccs1; -6.34
Cc1ccc(S(=O)(=O)N2CCCCC2)cc1NC(=O)c1cccnc1; 65.4
COc1cc(/C=C/C(=O)OCC(=O)c2ccccc2)cc(OC)c1OC; 10
CC1CN(CC(=O)NC(C)c2ccccc2)CC(C)O1 (stereo unspecified); 0.77
Cc1cccc(Oc2c([N+](=O)[O-])c(=O)n(C)c3ccccc23)c1; 8.99

###

System: beta-arrestin 1 C-terminal peptide binding to AP2 beta2-adaptin appendage (human)
measurement_notes: inhibitors of beta-arrestin/AP2 binding, primary screen, biochemical, GPCR trafficking, flow cytometry (AID 504490);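 further: plate controls were DMSO wells for no effect and 5 µM unlabelled arrestin peptide for full effect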
assay_context: FITC-arrestin peptide / GST-AP2 beads, at 10 µM, AP2 beta2 appendage carries R879A mutation
The campaign covered roughly 340,000 compounds. About 1,100 (0.32%) were called active.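 How the source made its calls: active means inhibition above a set limit, near 3 SD of compounds lacking own fluorescence (cut at about 54% in these data); inactive means the rest.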 The entries come from a sample that favours actives as a whole.
Labels: yes (1) (active), no (0) (inactive)

CC(CN1CCCCC1)OC(=O)c1ccccc1Cl (stereo not drawn); yes (1)
CC(C)(Oc1ccc(Cl)cc1)C(=O)OCC(=O)NCCc1ccc(S(N)(=O)=O)cc1; no (0)
COc1ccc(C(C)(C)C)cc1NC(=O)CCN1C(=O)C2CCCCC2C1=O (stereo not drawn); no (0)

###

Reported values of inhibition for individual entries
Tested on: beta-arrestin 1 C-terminal peptide binding to AP2 beta2-adaptin appendage (human)
measurement_notes: inhibitors of beta-arrestin/AP2 binding, primary screen, biochemical, GPCR trafficking, flow cytometry (AID 504490);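 further: plate controls were DMSO wells for no effect and 5 µM unlabelled arrestin peptide for full effect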
assay_context: FITC-arrestin peptide / GST-AP2 beads, at 10 µM, stronger effect = higher value, AP2 beta2 appendage carries R879A mutation
The whole screen tested about 340,000 compounds, of which about 1,100 (0.32%) were called active. Only a selection was taken, and actives are over-represented in it overall.
attribute_measured: inhibition (%)

Cc1ccc(C(=O)NC(C)c2ccccc2)cc1Br (configuration not stated); -2.36
COCCNC(=O)c1snc2ccc(Cl)cc12; 2.57
Cc1ccc(C)c(Cn2cnc3c(oc4ccccc43)c2=O)c1; 29.7
COc1ccc(CN2CCN(C(=O)CCC(=O)Nc3nnc(C(C)C)s3)CC2)cc1F; 17.3
COc1ccc(-n2ncc3c2CC(C)(C)CC3NC(=O)CCc2c(C)noc2C)cc1 (configuration not stated); 5.75
COc1ccc(Br)cc1CN(C)CC(=O)Nc1cc(Cl)cc(Cl)c1; 4.23
CCOc1ccc(-n2c(SCC(N)=O)nnc2-c2ccco2)cc1; -5.91
